Sourced from ChEMBL document CHEMBL1133939

molecular target: NS3 (Hepatitis C virus, UniProt A3EZJ3); test: Inhibitory activity against hepatitis C virus (HCV) NS3 protease in the presence of Zn2+.; set-up: species or system Hepacivirus hominis
Sequence (A3EZJ3 whole entry): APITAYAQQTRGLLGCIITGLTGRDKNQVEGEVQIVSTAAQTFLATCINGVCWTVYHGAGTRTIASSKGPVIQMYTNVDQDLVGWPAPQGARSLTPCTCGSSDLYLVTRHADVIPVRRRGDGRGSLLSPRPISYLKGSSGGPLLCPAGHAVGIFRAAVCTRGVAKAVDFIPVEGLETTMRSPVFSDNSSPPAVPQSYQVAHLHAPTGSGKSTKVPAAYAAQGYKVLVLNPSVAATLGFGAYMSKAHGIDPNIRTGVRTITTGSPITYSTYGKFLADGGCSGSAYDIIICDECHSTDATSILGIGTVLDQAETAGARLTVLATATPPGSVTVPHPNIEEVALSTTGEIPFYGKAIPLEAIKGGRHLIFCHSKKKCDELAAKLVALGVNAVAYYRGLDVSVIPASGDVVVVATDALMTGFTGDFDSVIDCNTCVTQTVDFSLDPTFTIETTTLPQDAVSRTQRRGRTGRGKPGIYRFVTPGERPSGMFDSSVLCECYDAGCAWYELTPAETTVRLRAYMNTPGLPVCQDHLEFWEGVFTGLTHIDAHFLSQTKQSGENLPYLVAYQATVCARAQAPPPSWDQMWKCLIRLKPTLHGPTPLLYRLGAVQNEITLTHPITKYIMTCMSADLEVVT
measurementLabel: IC50 (µM)

Check out these entries, answers already filled in.
Cn1c(Cc2nc3cc(C(N)=O)ccc3[nH]2)nc2ccc(C(=O)NC(CC(=O)NS(=O)(=O)c3ccccc3C(=O)O)C(=O)O)cc21 (configuration not stated) : 1.6
COC(=O)c1ccccc1S(=O)(=O)NC(=O)CC[C@H](NC(=O)c1ccc2nc(Cc3nc4cc(C(N)=O)ccc4[nH]3)n(C)c2c1)C(=O)OCc1ccccc1 : 29

a = Cn1c(Cc2nc3ccc(C(N)=O)cc3[nH]2)nc2ccc(C(=O)Nc3cccc(C(=O)NC(CCC(=O)O)C(=O)O)c3)cc21 (configuration not stated)
b = COC(=O)c1ccccc1S(=O)(=O)NC(=O)C[C@H](NC(=O)c1ccc2nc(Cc3nc4ccc(C(N)=O)cc4[nH]3)n(C)c2c1)C(=O)OCc1ccccc1
c = COC(=O)c1ccccc1S(=O)(=O)NC(=O)CC(NC(=O)c1ccc2nc(Cc3nc4ccccc4[nH]3)n(C)c2c1)C(=O)O (configuration not stated)
d = Cn1c(Cc2nc3cc(C(N)=O)ccc3[nH]2)nc2ccc(C(=O)NC(CCCP(=O)(O)O)C(=O)O)cc21 (configuration not stated)
e = Cn1c(Cc2nc3ccc(C(N)=O)cc3[nH]2)nc2ccc(C(=O)NC(CCCCCP(=O)(O)O)C(=O)O)cc21 (configuration not stated)
Sort the compounds on IC50; start with the lowest figure. To answer, arrange all of the labels according to the requested order. e, d, a, c, b
(e: 0.51 µM, d: 0.82 µM, a: 6.4 µM, c: 11 µM, b: 37 µM)
